Measurement target: T1, huMICA*004 alpha 3-his (human)
T1 construct: whole construct entry: GS, alpha 3 domain, GNS, His8; also called MICA004.His; MICA*004 alpha3 construct
T1 chain: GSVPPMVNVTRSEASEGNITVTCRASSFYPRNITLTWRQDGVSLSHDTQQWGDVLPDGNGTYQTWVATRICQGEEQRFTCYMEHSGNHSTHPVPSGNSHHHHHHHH
Assay summary: SPR, Biacore 8K, antibody on Protein A chip
Readout kind: Kd (nM)
Answer with a number only, understood to be in nM.

Request: What Kd value was documented for this binder, 13A9v2 (antibody, IgG1, V domains shown, humanized variant of 13A9) VH: EVQLVQSGAEVKKPGASVKVSCKASGYAFTNYLIEWVRQAPGQGLEWIGAINPGSGATNYNEKFKDRATLTADKSTNTAYLELSSLRSEDTAVYFCARFLGNYFDNWGQGTLVTVSS VL: DIQMTQSPSSLSASVGDRVTITCRASGNIHSYLAWYQQKPGKAPKLLIYYAETLADGVPSRFSGSGSGTDFTLTISSLQPEDFATYYCQQFWTTPYTFGQGTKVEIK ?
Response: 5.32

Request: What Kd value was documented for this binder, 15F11v4 (antibody, IgG1, V domains shown, humanized variant of 15F11) VH: EIQLVQSGAEVKKPGASVKVSCKPSGYAFTSNNIYWVRQAPGQGLEWIGYIDPYIGRIIYNQQFKDRATLTVDKSTSTAYLELSSLRSEDTAVYYCSRSGERSNFDYWGQGTLVTVSS VL: EIVLTQSPATLSLSPGERATLSCSASSSISSNYLHWYQQKPGQSPRLLIYRTSNLASGVPARFSGSGSGTDYTLTISSLEPEDFAVYYCQQGGSLPLTFGQGTKVEIK ?
Response: 2.58

Request: What Kd value was documented for this binder, 13A9 (antibody, V domains shown, mouse variable domains) VH: QVQLQQSGAELVRPGTSVKVSCKASGYAFTNYLIEWVKQRPGQGLEWIGAINPGSGATNYNEKFKDKARLTADKSSNTAYLQFSSLTSDDSAVYFCARFLGNYFDNWGQGATLTVSS VL: DIQMTQSPASLSASVGETVTITCRASGNIHSYLAWYQQKQGKSPQLLVYYAETLADGVPSRFSGRGSGTQYSLKINSLQPEDFGSYFCQQFWTTPYTFGGGTKVEIK ?
Response: 6.77

Request: What Kd value was documented for this binder, 1D5v16 (antibody, IgG1, V domains shown, humanized variant of 1D5) VH: EVQLVQSGAEVKKPGASVKVSCKASGYAFTSQNIYWVRQAPGQGLEWIGYIEPYNVVPMYNPKFKGRVTITRDTSTSTAYLELSSLRSEDTAVYYCARSGSSNFDYWGQGTLVTVSS VL: DIQMTQSPSSLSASVGDRVTITCSASSSISSHYLHWYQQKPGKAPKLLIYRTSNLASGVPSRFSGSGSGTDFTLTISSLQPEDFATYYCQQGSSLPLTFGQGTKVEIK ?
Response: 3.42

Request: What Kd value was documented for this binder, 1D5v19 (antibody, IgG1, V domains shown, humanized variant of 1D5) VH: EVQLVQSGAEVKKPGASVKVSCKASGYAFTSQNIYWVRQAPGQGLEWIGYIEPYNVVPMYNPKFKGRATLTVDKSTSTAYLELSSLRSEDTAVYYCARSGSSNFDYWGQGTLVTVSS VL: DIQLTQSPSSLSASVGDRVTITCSASSSISSHYLHWYQQKPGKSPKLLIYRTSNLASGVPSRFSGSGSGTDYTLTISSLQPEDFATYYCQQGSSLPLTFGQGTKVEIK ?
Response: 0.88

Data provenance: patent US20200055939A1
